Target: p70 (NAMPT) (Homo sapiens)
Construct: endogenous in cells; host or cells: H2122 lung cancer cells
Sequence (P43490 whole entry): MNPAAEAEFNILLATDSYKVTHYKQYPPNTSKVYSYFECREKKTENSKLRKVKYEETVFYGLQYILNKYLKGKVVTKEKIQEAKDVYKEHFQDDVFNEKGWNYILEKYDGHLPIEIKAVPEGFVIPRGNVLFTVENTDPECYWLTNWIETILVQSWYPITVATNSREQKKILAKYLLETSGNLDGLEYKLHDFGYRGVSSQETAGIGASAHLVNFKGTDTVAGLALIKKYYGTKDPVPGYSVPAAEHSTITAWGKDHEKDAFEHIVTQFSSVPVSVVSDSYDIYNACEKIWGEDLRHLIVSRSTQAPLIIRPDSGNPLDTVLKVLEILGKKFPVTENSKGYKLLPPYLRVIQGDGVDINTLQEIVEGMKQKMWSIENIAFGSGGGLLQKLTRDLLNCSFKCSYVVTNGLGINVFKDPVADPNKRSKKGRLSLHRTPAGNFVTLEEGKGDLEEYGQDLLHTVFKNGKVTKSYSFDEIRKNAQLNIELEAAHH
Assay: binding competition for photo-crosslinking of P7C3-S326 to p70 in H2122 cells
Conditions: 0.3 μM P7C3-S326 plus 5 μM competitor, p70 band intensity, P7C3-S326 alone compared with plus competitor, vehicle 1.0

{"columns": ["Compound", "Tested Target", "Binding competition"],
 "data": [
  ["CNCCCC1c2ccccc2C=Cc2ccccc21.Cl [S90, Protriptyline, reference compound]", "p70 (NAMPT) (Homo sapiens)", 1.4],
  ["Cc1ccc2c(c1)c1cc(Br)ccc1n2CC(=O)O", "p70 (NAMPT) (Homo sapiens)", 1.7],
  ["NCC(O)CN1c2ccccc2CCc2ccccc21 (centres unmarked)", "p70 (NAMPT) (Homo sapiens)", 1.2],
  ["OC(CNc1cccc2ccccc12)Cn1c2ccccc2c2ccccc21 (centres unmarked)", "p70 (NAMPT) (Homo sapiens)", 3.2],
  ["CCOC(=O)c1cc2c(cn1)[nH]c1ccc(Br)cc12", "p70 (NAMPT) (Homo sapiens)", 2.5],
  ["OC(COc1ccccc1)Cn1c2ccncc2c2cc(Br)ccc21 (centres unmarked)", "p70 (NAMPT) (Homo sapiens)", 4.0],
  ["[N-]=[N+]=Nc1ccc(NCC(O)Cn2c3ccc(Br)cc3c3cc(Br)ccc32)cc1 (centres unmarked)", "p70 (NAMPT) (Homo sapiens)", 3.4],
  ["N[C@@H]1C[C@H]1c1ccccc1 [S118, Parnate, reference compound]", "p70 (NAMPT) (Homo sapiens)", 1.3],
  ["N[C@@H](Cc1c[nH]c2ccccc12)C(=O)O", "p70 (NAMPT) (Homo sapiens)", 1.3],
  ["NNCCc1ccccc1 [S116, Nardi, reference compound]", "p70 (NAMPT) (Homo sapiens)", 1.2],
  ["OCCCc1cn(CC(O)Cn2c3ccc(Br)cc3c3cc(Br)ccc32)nn1 (centres unmarked)", "p70 (NAMPT) (Homo sapiens)", 2.1],
  ["CC(C)(C)OC(=O)NCCCCCOc1ccc(S(=O)(=O)CC(O)Cn2c3ccc(Br)cc3c3cc(Br)ccc32)cc1 (centres unmarked)", "p70 (NAMPT) (Homo sapiens)", 2.7],
  ["COc1cccc(S(=O)(=O)CC(F)Cn2c3ccc(Br)cc3c3cc(Br)ccc32)c1 (centres unmarked)", "p70 (NAMPT) (Homo sapiens)", 1.2],
  ["O=C(O)c1cc2c3cc(Br)ccc3n(CC(O)COc3ccccc3)c2cn1 (centres unmarked)", "p70 (NAMPT) (Homo sapiens)", 1.0],
  ["FC(COc1ccccc1)Cn1c2c(c3cc(Br)ccc31)CNCC2 (centres unmarked)", "p70 (NAMPT) (Homo sapiens)", 1.0],
  ["CN(C)c1nc(O)c2[nH]c3ccccc3c2n1", "p70 (NAMPT) (Homo sapiens)", 1.0],
  ["COc1cccc(NCC(F)(F)Cn2c3ccc(Br)cc3c3cc(Br)ccc32)c1", "p70 (NAMPT) (Homo sapiens)", 1.2],
  ["NC(=O)c1ccc2[nH]c3ccc(Br)cc3c2c1", "p70 (NAMPT) (Homo sapiens)", 3.0],
  ["OC(COC1CCCCC1)Cn1c2ccc(Br)cc2c2cc(Br)ccc21 (centres unmarked)", "p70 (NAMPT) (Homo sapiens)", 1.7],
  ["CCOC(=O)c1cc2c3cc(Br)ccc3n(CC(O)COc3ccccc3)c2cn1 (centres unmarked)", "p70 (NAMPT) (Homo sapiens)", 1.8]
]}

Source listed as patent US9243281B2.
